# reported Stability of Cannabinoids in AB Red; entries follow
# MEASUREMENT NOTES: Stability of cannabinoid and Vitamin E components of Beverage 2 (AB Red) stored at 8° C. and 21-25° C., LCMSMS over 570 days
# CONDITION CONTEXT: 8° C., 450 days
Output spec: scalar in µg/mL, unitless text.

Some solved cases for reference:
C=C(C)[C@@H]1CCC(C)=C[C@H]1c1c(O)cc(CCCCC)c(C(=O)O)c1O : 1.63
C=C(C)[C@@H]1CCC(C)=C[C@H]1c1c(O)cc(CCC)cc1O : 0.195
CCCCCc1cc(O)c(C/C=C(\C)CCC=C(C)C)c(O)c1 : 4.54

Okay, now this compound:
Ask: Which Stability of Cannabinoids in AB Red value is on record for CCCCCc1cc(O)c2c(c1)OC(C)(C)[C@@H]1CCC(C)=C[C@@H]21 [D9 THC, delta-9-tetrahydrocannabinol, reference compound] ?
Result: 12.4

---

# Type: physicochemical
# CONDITION CONTEXT: stored at room temperature (21-25° C.), day 0
List of Stability in Powder Concentrate (content by LCMSMS) values.
Numeric answer only, unit mg/g powder assumed.

Here is how some molecules turned out for Stability in Powder Concentrate (content by LCMSMS).
CCCCCc1cc(O)c2c(c1)OC1(C)CCC3C1C2C3(C)C (stereo not shown) : 0.050
CCCc1cc(O)c2c(c1)OC(C)(C)[C@@H]1CCC(C)=C[C@@H]21 [THCV, delta-9-tetrahydrocannabivarin] : 0.680
CC(=O)Oc1c(C)c(C)c2c(c1C)CCC(C)(CCC[C@H](C)CCC[C@H](C)CCCC(C)C)O2 (stereo partly drawn) [α-Tocopheryl acetate] : 2.15

# next molecule below
Ask: # get_value(readout='Stability in Powder Concentrate (content by LCMSMS)', item= Cc1c(C)c2c(c(C)c1OC(=O)CCC(=O)O)CC[C@@](C)(CCC[C@H](C)CCC[C@H](C)CCCC(C)C)O2 [α-Tocopheryl succinate] )
Result: 1.82

---

# Format: physicochemical
# CONDITION CONTEXT: stored at room temperature (21-25° C.), day 1
Please enter 1.0 where Stability in Powder Concentrate (content by LCMSMS) is greater than or equal to 2 mg/g powder, and 0.0 where it is lower.

Cc1c(C)c2c(c(C)c1OC(=O)CCC(=O)O)CC[C@@](C)(CCC[C@H](C)CCC[C@H](C)CCCC(C)C)O2 [α-Tocopheryl succinate] : 0.0
CCCCCc1cc(O)c2c(c1)OC(C)(C)[C@@H]1CCC(C)=C[C@@H]21 [D9 THC, delta-9-tetrahydrocannabinol, reference compound] : 1.0
CCCc1cc(O)c2c(c1)OC(C)(C)[C@@H]1CCC(C)=C[C@@H]21 [THCV, delta-9-tetrahydrocannabivarin] : 0.0
CC(=O)Oc1c(C)c(C)c2c(c1C)CCC(C)(CCC[C@H](C)CCC[C@H](C)CCCC(C)C)O2 (stereo partly drawn) [α-Tocopheryl acetate] : 1.0
CCCCCc1cc(O)c2c(c1)OC(C)(C)c1ccc(C)cc1-2 [CBN, cannabinol] : 0.0

Ask: Quick check, Stability in Powder Concentrate (content by LCMSMS) >= 2 mg/g powder? CCCCCc1cc(O)c(C/C=C(\C)CCC=C(C)C)c(O)c1 [CBG, cannabigerol]
Result: 0.0

---

Item-by-item account of Stability in Powder Concentrate (content by LCMSMS)
# Assay type: physicochemical
# CONDITION CONTEXT: stored at room temperature (21-25° C.), day 270
Write the answer as a number in mg/g powder, unit excluded.

Example cases with answers are listed next.
CCCc1cc(O)c2c(c1)OC(C)(C)[C@@H]1CCC(C)=C[C@@H]21 [THCV, delta-9-tetrahydrocannabivarin] : 0.670
Cc1c(C)c2c(c(C)c1OC(=O)CCC(=O)O)CC[C@@](C)(CCC[C@H](C)CCC[C@H](C)CCCC(C)C)O2 [α-Tocopheryl succinate] : 1.87
CC(=O)Oc1c(C)c(C)c2c(c1C)CCC(C)(CCC[C@H](C)CCC[C@H](C)CCCC(C)C)O2 (stereo partly drawn) [α-Tocopheryl acetate] : 2.13
CCCCCc1cc(O)c(C/C=C(\C)CCC=C(C)C)c(O)c1 : 1.15

Ask: I'd like to know its Stability in Powder Concentrate (content by LCMSMS). The compound in question is C=C(C)[C@@H]1CCC(C)=C[C@H]1c1c(O)cc(CCC)cc1O
Result: 0.051

Ask: Another: CCCCCc1cc(O)c2c(c1)OC1(C)CCC3C1C2C3(C)C (stereo not shown)
Result: 0.051

Ask: Field entry: Cc1c(C)c2c(c(C)c1O)CC[C@@](C)(CCC[C@H](C)CCC[C@H](C)CCCC(C)C)O2
Result: 4.78

---

Let's look at some compounds and their measured Stability of Cannabinoids in AB Red.
# MEASUREMENT NOTES: Stability of cannabinoid and Vitamin E components of Beverage 2 (AB Red) stored at 8° C. and 21-25° C., LCMSMS over 570 days
# CONDITION CONTEXT: 8° C., 30 days
Write it as a number; the unit µg/mL goes unstated.

Consider the following illustrative entries.
CCCCCc1cc(O)c(C/C=C(\C)CCC=C(C)C)c(O)c1 : 4.72
CCCCCc1cc(O)c2c(c1)OC(C)(C)c1ccc(C)cc1-2 : 2.77
CCCCCc1cc(O)c2c(c1)OC(C)(C)[C@@H]1CCC(C)=C[C@@H]21 [D9 THC, delta-9-tetrahydrocannabinol, reference compound] : 12.9
CCCCCc1cc(O)c2c(c1)OC(C)(CCC=C(C)C)C=C2 (stereo not drawn) : 0.282
CCCc1cc(O)c2c(c1)OC(C)(C)[C@@H]1CCC(C)=C[C@@H]21 [THCV, delta-9-tetrahydrocannabivarin] : 3.20

Ask: Given CCCCCc1cc(O)c2c(c1)OC1(C)CCC3C1C2C3(C)C (stereo not drawn) , state its recorded Stability of Cannabinoids in AB Red.
Result: 0.511

Ask: // repeat for C=C(C)[C@@H]1CCC(C)=C[C@H]1c1c(O)cc(CCC)cc1O and report
Result: 0.200

Ask: Another compound to check: CCCCCc1cc2c(c(O)c1C(=O)O)[C@@H]1C=C(C)CC[C@H]1C(C)(C)O2 [D9 THCA, delta-9-tetrahydrocannabinolic acid]
Result: 1.31

Ask: Okay, and C=C(C)[C@@H]1CCC(C)=C[C@H]1c1c(O)cc(CCCCC)c(C(=O)O)c1O ?
Result: 1.70

---

# MEASUREMENT NOTES: Stability of cannabinoid and Vitamin E components of Beverage 2 (AB Red) stored at 8° C. and 21-25° C., LCMSMS over 570 days
# CONDITION CONTEXT: 8° C., 19 days
Classification field: enter Met for Stability of Cannabinoids in AB Red values not below 1 µg/mL, Not met for values below it.

Ask: In plain terms: is recorded Stability of Cannabinoids in AB Red at least 1 µg/mL for CCCCCc1cc(O)c(C/C=C(\C)CCC=C(C)C)c(O)c1 [CBG, cannabigerol] ?
Result: Met

Ask: And then CCCCCc1cc2c(c(O)c1C(=O)O)[C@@H]1C=C(C)CC[C@H]1C(C)(C)O2 [D9 THCA, delta-9-tetrahydrocannabinolic acid] , what is it?
Result: Met

Ask: Now the same for CCCCCc1cc(O)c2c(c1)OC(C)(CCC=C(C)C)C=C2 (stereo not drawn) [CBC, cannabichromene]
Result: Not met

---

# MEASUREMENT NOTES: Stability of cannabinoid and Vitamin E components of Beverage 2 (AB Red) stored at 8° C. and 21-25° C., LCMSMS over 570 days
# CONDITION CONTEXT: 8° C., 150 days
QUANTITY MEASURED: Stability of Cannabinoids in AB Red
Express the reported value numerically, then name its unit.

Example compounds with recorded Stability of Cannabinoids in AB Red:
CCCCCc1cc(O)c2c(c1)OC(C)(CCC=C(C)C)C=C2 (stereo not drawn) [CBC, cannabichromene] : 0.281 µg/mL
CCCCCc1cc(O)c2c(c1)OC(C)(C)[C@@H]1CCC(C)=C[C@@H]21 [D9 THC, delta-9-tetrahydrocannabinol, reference compound] : 12.8 µg/mL
C=C(C)[C@@H]1CCC(C)=C[C@H]1c1c(O)cc(CCCCC)c(C(=O)O)c1O [CBDA, cannabidiolic acid] : 1.66 µg/mL

Ask: Endpoint output: Stability of Cannabinoids in AB Red of C=C(C)[C@@H]1CCC(C)=C[C@H]1c1c(O)cc(CCC)cc1O [CBDV, cannabidivarin] . Value?
Result: 0.198 µg/mL

Ask: Another: CCCCCc1cc(O)c2c(c1)OC(C)(C)c1ccc(C)cc1-2 [CBN, cannabinol]
Result: 2.69 µg/mL

Ask: Also CCCCCc1cc2c(c(O)c1C(=O)O)[C@@H]1C=C(C)CC[C@H]1C(C)(C)O2 [D9 THCA, delta-9-tetrahydrocannabinolic acid] , if possible.
Result: 1.34 µg/mL

Ask: Further, for CCCc1cc(O)c2c(c1)OC(C)(C)[C@@H]1CCC(C)=C[C@@H]21 [THCV, delta-9-tetrahydrocannabivarin] ?
Result: 3.15 µg/mL

Ask: Please do the same for CCCCCc1cc(O)c(C/C=C(\C)CCC=C(C)C)c(O)c1 [CBG, cannabigerol] as well.
Result: 4.67 µg/mL

Ask: Then this compound: CCCCCc1cc(O)c2c(c1)OC1(C)CCC3C1C2C3(C)C (stereo not drawn) [CBL, cannabicyclol]
Result: 0.501 µg/mL

Recorded values, source patent US20240415914A1.
